# testMethodNotes: Moisture absorption/desorption test
# Type: physicochemical
# testConditions: relative humidity 5%, 25° C.
metricName: Weight change ratio, Desorption (%)

Use the examples below as a reference point.
molecule | resultValue
C=CC(=O)N1CCC[C@@H](n2nc(C(=O)Nc3nc4ccccc4o3)c3c(N)ncnc32)C1.O=C(O)/C=C/C(=O)O [monofumarate of Compound A] | 0.05
C=CC(=O)N1CCC[C@@H](n2nc(C(=O)Nc3nc4ccccc4o3)c3c(N)ncnc32)C1 | 0.67

(I) C=CC(=O)N1CCC[C@@H](n2nc(C(=O)Nc3nc4ccccc4o3)c3c(N)ncnc32)C1.C=CC(=O)N1CCC[C@@H](n2nc(C(=O)Nc3nc4ccccc4o3)c3c(N)ncnc32)C1.O=C(O)/C=C/C(=O)O [hemifumarate of Compound A]
(II) C=CC(=O)N1CCC[C@@H](n2nc(C(=O)Nc3nc4ccccc4o3)c3c(N)ncnc32)C1.O=P(O)(O)O [monophosphate of Compound A]
(III) C=CC(=O)N1CCC[C@@H](n2nc(C(=O)Nc3nc4ccccc4o3)c3c(N)ncnc32)C1.C=CC(=O)N1CCC[C@@H](n2nc(C(=O)Nc3nc4ccccc4o3)c3c(N)ncnc32)C1.O=C(O)C(O)C(O)C(=O)O [hemitartrate of Compound A]
*Q* Please list the entries, largest Weight change ratio, Desorption first. Write the labels in rank order as requested.
*A* II, I, III
(II: 5.76%, I: 0.04%, III: −0.28%)

Data provenance: patent US10280174B2
